- test system: Alpha-2A adrenergic receptor (Homo sapiens, UniProt P08913); note: assay procedure not described here
- Sequence (P08913 whole entry): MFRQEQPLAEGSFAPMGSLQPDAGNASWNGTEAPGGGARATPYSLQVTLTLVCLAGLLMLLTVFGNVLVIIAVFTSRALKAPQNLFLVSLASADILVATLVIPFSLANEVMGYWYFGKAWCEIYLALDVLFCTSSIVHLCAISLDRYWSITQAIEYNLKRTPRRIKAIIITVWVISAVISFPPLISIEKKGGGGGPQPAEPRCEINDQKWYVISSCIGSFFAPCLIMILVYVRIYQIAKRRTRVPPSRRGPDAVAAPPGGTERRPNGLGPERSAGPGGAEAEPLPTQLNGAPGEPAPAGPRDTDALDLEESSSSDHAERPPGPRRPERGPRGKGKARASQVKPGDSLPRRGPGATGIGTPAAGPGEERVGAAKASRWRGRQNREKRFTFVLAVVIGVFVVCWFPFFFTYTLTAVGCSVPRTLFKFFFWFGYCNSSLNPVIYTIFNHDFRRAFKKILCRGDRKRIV
- Type: functional, cell-based
Measured AC50, listed per entry.

Check out these entries, answers already filled in.
molecule	test system	AC50
O=C1NC(=O)C(c2ccccc2)(c2ccccc2)N1 [PHENYTOIN]	Alpha-2A adrenergic receptor (Homo sapiens, UniProt P08913)	> 30 µM
COc1ccc2c(c1)[C@]13CCCC[C@@H]1[C@H](C2)N(C)CC3 [DEXTROMETHORPHAN]	Alpha-2A adrenergic receptor (Homo sapiens, UniProt P08913)	> 10 µM
COc1cc2c(Nc3ccc(Br)cc3F)ncnc2cc1OCC1CCN(C)CC1 [VANDETANIB]	Alpha-2A adrenergic receptor (Homo sapiens, UniProt P08913)	2.1 µM
CCCC[C@H](C)C[C@H](O)/C=C/[C@H]1[C@H](O)CC(=O)[C@@H]1CCCC/C=C/C(=O)O [LIMAPROST]	Alpha-2A adrenergic receptor (Homo sapiens, UniProt P08913)	> 30 µM
COCCCOc1ccnc(C[S+]([O-])c2nc3ccccc3[nH]2)c1C (configuration not stated) [RABEPRAZOLE]	Alpha-2A adrenergic receptor (Homo sapiens, UniProt P08913)	> 10 µM

**Query** Name the recorded AC50 of the item CC[C@H]1OC(=O)[C@H](C)[C@@H](O[C@H]2C[C@@](C)(OC)[C@@H](O)[C@H](C)O2)[C@H](C)[C@@H](O[C@@H]2O[C@H](C)C[C@H](N(C)C)[C@H]2O)[C@](C)(O)C[C@@H](C)/C(=N\OCOCCOC)[C@H](C)[C@@H](O)[C@]1(C)O [ROXITHROMYCIN] in your answer.
**Result** > 30 µM

**Query** Retrieve AC50 measured for O=C(Nc1c(Cl)cncc1Cl)c1ccc(OC(F)F)c(OCC2CC2)c1 [ROFLUMILAST] and print it.
**Result** > 30 µM

---

- test system: Glucocorticoid receptor (Homo sapiens); note: assay procedure not described here
- Sequence (P04150 whole entry): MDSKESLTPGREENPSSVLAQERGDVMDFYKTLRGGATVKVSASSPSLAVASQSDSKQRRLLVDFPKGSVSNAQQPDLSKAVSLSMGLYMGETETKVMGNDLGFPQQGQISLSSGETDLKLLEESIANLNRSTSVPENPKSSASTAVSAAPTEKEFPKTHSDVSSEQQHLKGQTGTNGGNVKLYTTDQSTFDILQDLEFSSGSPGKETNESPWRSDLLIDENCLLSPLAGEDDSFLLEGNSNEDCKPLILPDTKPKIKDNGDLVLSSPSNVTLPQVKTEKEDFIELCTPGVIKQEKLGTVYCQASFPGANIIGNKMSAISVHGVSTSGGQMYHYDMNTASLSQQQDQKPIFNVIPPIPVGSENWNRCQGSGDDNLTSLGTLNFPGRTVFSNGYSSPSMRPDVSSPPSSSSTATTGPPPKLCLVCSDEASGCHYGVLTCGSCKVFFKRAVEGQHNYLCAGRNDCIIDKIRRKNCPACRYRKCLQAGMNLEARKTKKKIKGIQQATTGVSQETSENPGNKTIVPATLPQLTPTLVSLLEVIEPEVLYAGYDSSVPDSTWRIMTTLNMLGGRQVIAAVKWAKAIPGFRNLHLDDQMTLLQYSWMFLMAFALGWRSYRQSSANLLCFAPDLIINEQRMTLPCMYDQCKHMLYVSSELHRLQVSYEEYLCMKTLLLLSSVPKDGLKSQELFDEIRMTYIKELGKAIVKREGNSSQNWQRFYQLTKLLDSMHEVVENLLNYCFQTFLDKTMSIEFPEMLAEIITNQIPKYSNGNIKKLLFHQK
measurement label: AC50

Below: 5 molecules and their reported AC50.
molecule	result
Cc1cc2nc3c(=O)[nH]c(=O)nc-3n(C[C@H](O)[C@H](O)[C@H](O)COP(=O)(O)O)c2cc1C [RIBOFLAVIN 5'-PHOSPHATE]	19 µM
O=C(O)c1ccccc1Nc1cccc(C(F)(F)F)c1 [FLUFENAMIC ACID]	> 30 µM
N=C(N)NCCCCCCC(=O)NC(O)C(=O)NCCCCNCCCN (stereo not given)	> 30 µM
CNCC[C@@H](Oc1ccccc1C)c1ccccc1 [ATOMOXETINE]	> 30 µM
CCCNC(C)C(=O)Nc1ccccc1C (stereo not given) [PRILOCAINE]	> 30 µM

**Query** State its AC50: CCOC(=O)Nc1ccc2c(c1)N(C(=O)CCN1CCOCC1)c1ccccc1S2 [MORICIZINE]
**Result** > 30 µM

**Query** Dear colleague, please send me the reported AC50 for OCCN1CCN(CC/C=C2/c3ccccc3Sc3ccc(Cl)cc32)CC1 [ZUCLOPENTHIXOL] when you can.
**Result** > 10 µM

**Query** Specify reported AC50 for the molecule shown: Nc1nc(O)c2ncn(COC(CO)CO)c2n1 [GANCICLOVIR]
**Result** > 30 µM

**Query** Tell me its AC50 given CC#CCn1c(N2CCC[C@@H](N)C2)nc2c1c(=O)n(Cc1nc(C)c3ccccc3n1)c(=O)n2C [LINAGLIPTIN] as the entry.
**Result** > 30 µM

**Query** Annotate the molecule CNCCC=C1c2ccccc2CCc2ccccc21 [NORTRIPTYLINE] with its measured AC50.
**Result** > 30 µM

Each recorded value in this set is attributed to ChEMBL document CHEMBL5291721.
